- Test system: SN12C
- ASSAY_INFO: NCI tumour cell line growth inhibition, 48 h
Where a name gives a salt, the structure may show the parent alone. The source made the active and inactive calls. Cut-off read from the data, not from the text of the source: active = GI50 up to about 1.1 µM and inactive = higher.
Return exactly one item of active, inactive

(Q) Answer briefly: the call reported for CC(C)C(Sc1nc(-c2ccccc2)c(-c2ccccc2)[nH]1)C(=O)N/N=C/c1ccc([N+](=O)[O-])cc1 (configuration not stated) in this assay.
(A) inactive

(Q) Answer briefly: the call reported for COc1c(Cl)c2c(c(OC)c1OC)-c1ccc(OC)c(=O)c(Cl)c1C(NC(C)=O)CC2 (configuration not stated) in this assay.
(A) active

(Q) Answer briefly: the call reported for CN(C)CCn1c(=O)c2ccc(NCCCN(C)CCCNc3ccc4c(=O)n(CCN(C)C)c(=O)n5c6ccc(O)cc6c(=O)c3c45)c3c(=O)c4cc(O)ccc4n(c1=O)c23 in this assay.
(A) active

(Q) Answer briefly: the call reported for Cc1ccc(NC(=O)C2C(=O)N(c3ccc(C)c(C)c3)C(=O)/C2=N\NC(N)=S)cc1C (configuration not stated) in this assay.
(A) inactive

(Q) Answer briefly: the call reported for COc1cc2c(cc1OC)C(CC1=C(c3ccccc3)CN3CCc4cc(OC)c(OC)cc4C3C1)NCC2 (configuration not stated) in this assay.
(A) inactive

(Q) Answer briefly: the call reported for Cc1c(Cl)ccc2c1NC(=O)C2(O)CC(=O)c1ccc(Cl)cc1 (configuration not stated) in this assay.
(A) inactive

(Q) Answer briefly: the call reported for CCCCCCc1cc(C(=O)Nc2cccc(C(F)(F)F)c2)nc(N)n1 in this assay.
(A) inactive

(Q) Answer briefly: the call reported for CCOC(=O)c1cc(C#N)[nH]c1-c1ccsc1 in this assay.
(A) inactive

(Q) Answer briefly: the call reported for CC(C)OC(=O)c1ccc(CCc2cc(O)c(Br)cc2O)cc1 in this assay.
(A) inactive

(Q) Answer briefly: the call reported for COc1ccc2nc(NC(=O)C(=O)NNC(=O)c3ccncc3)sc2c1 in this assay.
(A) inactive

(Q) Answer briefly: the call reported for COC12CCC(=O)C=C1c1ccccc1N2C(C)=O (configuration not stated) in this assay.
(A) inactive

(Q) Answer briefly: the call reported for CC(=O)Nc1ccc(/C=C/C(=O)c2sc(-n3nc(-c4ccccc4)cc3-c3ccccc3)nc2C)cc1 in this assay.
(A) inactive

(Q) Answer briefly: the call reported for COC(=O)C1=C(c2ccc3c(c2)OCO3)OC(c2ccc3c(c2)OCO3)C1 (configuration not stated) in this assay.
(A) inactive

(Q) Answer briefly: the call reported for O=C1Nc2ccccc2Nc2nc3cccccc-3c21 in this assay.
(A) inactive

(Q) Answer briefly: the call reported for CC(=O)Oc1cc(OC(C)=O)c2c(=O)c3ccccc3[nH]c2c1 in this assay.
(A) inactive

(Q) Answer briefly: the call reported for Cc1cccc2c1c(=O)c1c(O)cc(O)cc1n2C in this assay.
(A) inactive

(Q) Answer briefly: the call reported for COc1cnc2cc(C(=O)O)c3ccccc3c2c1 in this assay.
(A) inactive

(Q) Answer briefly: the call reported for N#CC12CCC(O)C(CC1)C2=O (configuration not stated) in this assay.
(A) inactive

(Q) Answer briefly: the call reported for COC(=O)c1c([N+](=O)[O-])ncn1[C@H]1OC[C@@H](OC(C)=O)[C@@H](OC(C)=O)[C@@H]1OC(C)=O in this assay.
(A) inactive

(Q) Answer briefly: the call reported for ON=C1CCCCC(=NO)CCCC1 in this assay.
(A) inactive

(Q) Answer briefly: the call reported for O=S1(=O)c2ccccc2C(Nc2ccccc2)N1c1ccccc1 (configuration not stated) in this assay.
(A) inactive

(Q) Answer briefly: the call reported for Cc1ccc(NC(=O)CC(=O)N2N=C(N(CCC#N)c3cccc(C)c3)CC2c2ccccc2)cc1 (configuration not stated) in this assay.
(A) inactive

(Q) Answer briefly: the call reported for C=CCOCn1cnc2c(=O)[nH]c(N)nc21 in this assay.
(A) inactive

(Q) Answer briefly: the call reported for CC(C)C12Cc3c(ccc4ccccc34)OC1(C)Oc1ccc3ccccc3c1C2 (configuration not stated) in this assay.
(A) inactive

(Q) Answer briefly: the call reported for Oc1cc(-c2cccs2)nc2cc3c(cc12)OCO3 in this assay.
(A) inactive

(Q) Answer briefly: the call reported for Cn1c2c(c3ccccc31)CC1c3c(c4ccccc4n3C)CC21 (configuration not stated) in this assay.
(A) inactive

(Q) Answer briefly: the call reported for O=C(O)c1nc(-c2ccccn2)c(-c2ccccn2)nc1C(=O)O in this assay.
(A) inactive

(Q) Answer briefly: the call reported for COc1cc(C)c(C)c(OC(=O)c2c(C)c(C)c(OC)c(C)c2OC)c1C in this assay.
(A) inactive

(Q) Answer briefly: the call reported for Cn1c2ccccc2c2c3c(=O)[nH][nH]c(=O)c3c3c4ccccc4n(C)c3c21 in this assay.
(A) inactive

(Q) Answer briefly: the call reported for Cc1ccc2ccccc2c1CC1S(=O)(=O)OCCOS1(=O)=O in this assay.
(A) inactive

(Q) Answer briefly: the call reported for CC(=O)OC1=C2CC[C@@H]3C(CC[C@@]4(C)C3CC[C@@H]4OC(C)=O)[C@@]2(C)CC(C#N)C1=O (some centres not stated) in this assay.
(A) inactive

(Q) Answer briefly: the call reported for CCOC(=O)c1cc(Br)c(-c2onc(C)c2Br)[nH]1 in this assay.
(A) inactive

(Q) Answer briefly: the call reported for Nc1cc(F)ccc1CC(=O)O in this assay.
(A) inactive

(Q) Answer briefly: the call reported for Cc1cc(C(=O)CBr)c(CN2C(=O)c3ccccc3C2=O)c(=O)n1C in this assay.
(A) inactive

(Q) Answer briefly: the call reported for CON(C)c1nc(N)c(C#N)c(C#N)c1C#N in this assay.
(A) inactive

(Q) Answer briefly: the call reported for COc1cc(C2c3cc4c(cc3[C@@H](OCCN(C)C)C3COC(=O)[C@H]23)OCO4)cc(OC)c1O (some centres not stated) in this assay.
(A) active

(Q) Answer briefly: the call reported for CN(C)CCNC(=O)c1ccc(NCCCN(C)CCCNc2ccc3c(=O)n(CCN(C)C)c(=O)n4c5ccccc5c(=O)c2c34)c2c(O)c3ccccc3nc12 in this assay.
(A) active

(Q) Answer briefly: the call reported for N#CC1=C(c2ccccc2)C(O)(c2ccccc2)NC1=O (configuration not stated) in this assay.
(A) inactive

(Q) Answer briefly: the call reported for C[C@@H](O)C(=O)N1[C@@H]2CC3CC[C@]2(CS1(=O)=O)C3(C)C in this assay.
(A) inactive

(Q) Answer briefly: the call reported for CN1[C@@H]2CC[C@H]1C[C@@H](OC(c1ccccc1)c1ccccc1)C2 [BENZTROPINE MESYLATE] in this assay.
(A) inactive

(Q) Answer briefly: the call reported for COn1oc(=O)c2ccccc21 in this assay.
(A) inactive

(Q) Answer briefly: the call reported for COn1cc(C=O)c2ccccc21 in this assay.
(A) inactive
